- target: His-Tau40P301L Tau (UniProt P10636-8 1-441)
- Sequence (P10636 other isoform, or with tags, fused parts or gaps limits assumed): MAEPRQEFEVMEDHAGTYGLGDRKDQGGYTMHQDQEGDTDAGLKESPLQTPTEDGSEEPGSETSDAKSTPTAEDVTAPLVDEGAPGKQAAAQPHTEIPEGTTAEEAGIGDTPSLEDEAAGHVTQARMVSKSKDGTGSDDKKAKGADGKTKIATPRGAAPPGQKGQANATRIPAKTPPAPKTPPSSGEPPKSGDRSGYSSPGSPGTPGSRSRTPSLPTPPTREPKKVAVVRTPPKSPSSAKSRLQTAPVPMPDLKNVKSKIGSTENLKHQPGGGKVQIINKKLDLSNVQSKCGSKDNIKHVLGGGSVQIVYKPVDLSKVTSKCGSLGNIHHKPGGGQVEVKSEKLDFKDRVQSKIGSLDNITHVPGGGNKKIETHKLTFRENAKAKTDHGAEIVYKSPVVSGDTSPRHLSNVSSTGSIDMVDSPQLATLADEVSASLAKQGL
- assay-overview: cell-based or functional assay
// boundary case: IC50 (µM), Tau40 assay (ThT) equal to 2 µM maps to condition not met; strictly smaller maps to condition met

- WRLRLRW: condition met
- RIRRWIW: condition not met
- WRIRLWYW: condition met
- WRIRIWYW: condition met
- WRIRIRA: condition not met
- WRIEIRYW: condition not met
- RIRLEWW: condition not met
- RIWIYWFR: condition met
- WRIWIR: condition not met
- RIRIWYW: condition not met
- HRIWIRYW: condition met
- WRIWIREW: condition not met
- IRIWIW: condition not met
- FRIRIKHY: condition not met
- RIRIRIW: condition not met
- RWRIWIW: condition met
- FRIWIRYW: condition not met
